Reference for the values: the CheMixHub drug solubility set

Would you kindly list solubility (g/100 g solution) for each of these molecules?
assay: xn = mol fraction of the nth substance listed, in the solute-free solvent; details: 313.15 K; x2 = 0.2
Please reply with the number alone, leaving off any unit.

Record O=c1cc(-c2ccccc2)oc2cc(O)c(O)c(O)c12 + CCO + O . Reported solubility (g/100 g solution): 0.128

Record O=CC(O)C(O)C(O)CO (stereo unspecified) + CC(C)O + CCCCCC . Reported solubility (g/100 g solution): 0.16

Record Cl.NC(C=O)C(O)C(O)C(O)CO (stereo unspecified) + O + CO . Reported solubility (g/100 g solution): 1.55

Record O=CC(O)C(O)C(O)CO (stereo unspecified) + CCO + CCCCCC . Reported solubility (g/100 g solution): 0.179

Record Cc1nc(C)c(C)nc1C + CO + CC#N . Reported solubility (g/100 g solution): 50.5

Record Cc1nc(C)c(C)nc1C + CCCCO + CC#N . Reported solubility (g/100 g solution): 48.2
